Target: Protein deacetylase HDAC6 (Homo sapiens)
Sequence (whole entry): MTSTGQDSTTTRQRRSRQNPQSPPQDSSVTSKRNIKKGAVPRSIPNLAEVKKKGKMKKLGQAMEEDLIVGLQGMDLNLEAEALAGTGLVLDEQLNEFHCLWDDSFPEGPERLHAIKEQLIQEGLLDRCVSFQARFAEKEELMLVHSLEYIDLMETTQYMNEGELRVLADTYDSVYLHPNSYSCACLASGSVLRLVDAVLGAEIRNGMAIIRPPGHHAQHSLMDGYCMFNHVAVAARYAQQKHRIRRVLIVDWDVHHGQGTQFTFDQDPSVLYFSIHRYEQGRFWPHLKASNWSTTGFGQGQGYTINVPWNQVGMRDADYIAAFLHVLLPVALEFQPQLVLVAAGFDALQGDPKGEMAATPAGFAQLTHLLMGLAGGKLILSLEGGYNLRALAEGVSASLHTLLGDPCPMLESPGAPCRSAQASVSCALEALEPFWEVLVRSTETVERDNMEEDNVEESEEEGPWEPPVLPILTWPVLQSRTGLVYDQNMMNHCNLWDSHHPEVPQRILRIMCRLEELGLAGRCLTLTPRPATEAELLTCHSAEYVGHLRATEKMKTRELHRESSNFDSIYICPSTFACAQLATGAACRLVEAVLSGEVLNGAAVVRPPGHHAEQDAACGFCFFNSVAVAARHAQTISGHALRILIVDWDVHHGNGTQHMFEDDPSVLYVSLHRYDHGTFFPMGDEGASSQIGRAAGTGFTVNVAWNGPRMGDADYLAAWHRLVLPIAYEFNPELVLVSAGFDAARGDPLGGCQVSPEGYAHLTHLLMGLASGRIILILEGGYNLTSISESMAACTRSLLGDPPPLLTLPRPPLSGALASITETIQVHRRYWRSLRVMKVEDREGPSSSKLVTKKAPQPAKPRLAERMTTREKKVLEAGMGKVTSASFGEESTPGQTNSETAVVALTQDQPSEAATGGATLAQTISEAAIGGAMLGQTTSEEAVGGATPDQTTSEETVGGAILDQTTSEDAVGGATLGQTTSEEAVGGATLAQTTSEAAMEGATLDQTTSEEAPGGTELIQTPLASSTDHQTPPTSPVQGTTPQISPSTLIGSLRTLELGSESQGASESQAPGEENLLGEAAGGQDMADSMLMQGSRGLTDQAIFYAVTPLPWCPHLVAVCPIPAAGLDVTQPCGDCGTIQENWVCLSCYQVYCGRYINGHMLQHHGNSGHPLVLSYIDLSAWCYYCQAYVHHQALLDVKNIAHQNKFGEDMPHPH
Settings: at 10 µM
In all, about 5,600 compounds went through this assay and about 150 (2.7%) showed an effect of 50% or more. Only a selection was taken, and strong results are over-represented in it overall.
recorded_metric: inhibition (%)
# number only, unit % dropped from output

smiles_str=CC(=O)N[C@H]1[C@H]([C@H](O)[C@H](O)CO)O[C@](O)(C(=O)O)C[C@@H]1O recorded_metric=inhibition scale_unit=% recorded_measurement=-7.16

The compound listed as O=S(=O)(OC[C@H]1O[C@@](COS(=O)(=O)[O][Al]([OH])[OH])(O[C@H]2O[C@H](COS(=O)(=O)[O][Al]([OH])[OH])[C@@H](OS(=O)(=O)[O][Al]([OH])[OH])[C@H](OS(=O)(=O)[O][Al]([OH])[OH])[C@H]2OS(=O)(=O)[O][Al]([OH])[OH])[C@@H](OS(=O)(=O)[O][Al]([OH])[OH])[C@@H]1OS(=O)(=O)[O][Al]([OH])[OH])[O][Al]([OH])[OH] shows inhibition equal to -5.96

For Cc1ccc(OCCSc2ncccn2)c(Br)c1 the compound record lists inhibition as 77.5

The recorded inhibition for Cc1cc(NC(=O)NCCN2CCC(O)(Cc3ccccc3)CC2)c2ccccc2n1 is -3.32

Briefly, inhibition measured for CN[C@H](CNC(=O)N1CCC[C@@H]([C@@H](OCCNC(=O)OC)c2cccc(Cl)c2)C1)C[C@H]1CCCOC1 : 8.55

Lab note: Cc1nc(-c2ccc(OCC(C)C)c(C#N)c2)sc1C(=O)O gave inhibition of 98.8

Field inhibition (entry Cc1ccc(-c2ccc(C)cn2)nc1 ) reads 70.4

// recorded inhibition for Cc1cc(SCc2sc(-c3ccc(C(F)(F)F)cc3)nc2C)ccc1OCC(=O)O : 3.31
